Reference for the values: patent US20190284293A1

# System: CD16B-NA2 (FcgRIIIb-NA2) (Homo sapiens, UniProt O75015)
# Sequence (O75015 17-200 limits assumed): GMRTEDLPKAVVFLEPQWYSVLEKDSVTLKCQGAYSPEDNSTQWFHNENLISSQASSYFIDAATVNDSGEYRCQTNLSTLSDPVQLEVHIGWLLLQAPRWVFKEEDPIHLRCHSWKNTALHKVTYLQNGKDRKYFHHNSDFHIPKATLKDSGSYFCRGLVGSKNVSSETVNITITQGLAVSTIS
# Measurement notes: SPR, antibody binding to anti-his Fab captured FcgR-his (% Rmax)
# Measurement setup: 1 μM antibody
# Procedure: The binding of antibodies to Fc gamma receptors (FcγRs or FcgRs) was studied using biosensor technologies including Biacore surface plasmon resonance (SPR) and Fortebio Biolayer Interferometry (BLI). […] Various his-tagged FcgRs (7 ug/ml) were captured via the C-terminal his-tag using a contact time of 30 s at 10 ul/min, and the binding of 1.0 μM antibody was evaluated in a running buffer of 10 mM NaPO4, 130 mM NaCl, 0.05% p20 (PBS-T) pH 7.1. […]
Endpoint: % Rmax hCD16B-NA2 (%)
Answers are plain numbers, in %.

Query :: Assign % Rmax hCD16B-NA2 to the following record: mAb8-IgG2.5 (protein, left off: another chain or arm of the molecule) constant: ASTKGPSVFPLAPSSRSTSESTAALGCLVKDYFPEPVTVSWNSGALTSGVHTFPAVLQSSGLYSLSSVVTVPSSNFGTQTYTCNVDHKPSNTKVDKTVERKCCVECPPCPAPPVAGPSVFLFPPKPKDTLMISRTPEVTCVVVDVSHEDPEVQFNWYVDGVEVHNAKTKPREEQFNSTFRVVSVLTVVHQDWLNGKEYKCKVSNKGLPAPIEKTISKTKGQPREPQVYTLPPSREEMTKNQVSLTCLVKGFYPSDIAVEWESNGQPENNYKTTPPMLDSDGSFFLYSKLTVDKSRWQQGNVFSCSVMHEALHNHYTQKSLSLSPGK
Result :: 0
